# tgt: BIR2 domain of XIAP (Homo sapiens (Human), UniProt P98170, C202A/C213G)
# Sequence (P98170 other isoform, or with tags, fused parts or gaps, stated change not applied): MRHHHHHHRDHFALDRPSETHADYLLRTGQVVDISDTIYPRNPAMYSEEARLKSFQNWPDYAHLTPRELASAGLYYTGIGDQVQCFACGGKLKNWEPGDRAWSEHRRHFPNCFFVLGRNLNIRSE
# protocol notes: TR-FRET assay for BIR2: inhibition of binding of XIAP BIR2 domain to Peptide A (SMAC-derived peptide)
# condition label: 6× His-tagged BIR2 domain (aa 124-240 of XIAP) 10 nM, Peptide A 20 nM
pIC50: −log10 of the molar value.
property name: pIC50

CN[C@@H](C)C(=O)N[C@H]1CN(C(=O)c2cc(C)c(C(=O)N3C[C@H](NC(=O)[C@H](C)N)C(=O)N(Cc4c(OC)ccc5cc(Br)ccc45)c4ccccc43)cc2C)c2ccccc2N(Cc2c(OC)ccc3cc(Br)ccc23)C1=O ... 9.10
CN[C@@H](C)C(=O)N[C@H]1CN(C(=O)c2cncc(C(=O)N3C[C@H](NC(=O)[C@H](C)NC)C(=O)N(Cc4c(OC)ccc5cc(Br)ccc45)c4ccccc43)c2)c2ccccc2N(Cc2c(OC)ccc3cc(Br)ccc23)C1=O ... 8.88

P. CN[C@@H](C)C(=O)N[C@H]1CN(C(=O)c2ccc(C(=O)N3C[C@H](NC(=O)[C@H](C)NC)C(=O)N(Cc4c(OC)ccc5cc(Br)ccc45)c4ccccc43)c(C)c2)c2ccccc2N(Cc2c(OC)ccc3cc(Br)ccc23)C1=O
Q. CN[C@@H](C)C(=O)N[C@H]1CN(C(=O)CCCCCCC(=O)N2C[C@H](NC(=O)[C@H](C)NC)C(=O)N(Cc3c(OC)ccc4cc(Br)ccc34)c3ccccc32)c2ccccc2N(Cc2c(OC)ccc3cc(Br)ccc23)C1=O
Exam item: When their pIC50 values are compared, which is larger, P or Q ? Kindly give the label for the entry you pick.
Marked response: Q
(Q: 9.06, P: 8.86)
